- method summary: Bioavailability in po dosed Sprague-Dawley rat
- Type: ADME, organism-based
- experimental parameters: in vivo
property: bioavailability (%)
Lab book: enter the figure in %, no units written.

Could you please provide reported bioavailability for CCNC(=O)N(c1ccc(OC)cc1)c1ccnc(N[C@@H](C)C(C)(C)O)n1 ? Thanks! 15

---

- method summary: Solubility in Sprague-Dawley rat
- Format: ADME, organism-based
property: solubility (µg/mL)
Lab book: enter the figure in µg/mL, no units written.

Could you please provide reported solubility for CCNC(=O)N(c1ccc(OC)cc1)c1ccnc(N[C@@H](C)C(C)(C)O)n1 ? Thanks! 240

Could you please provide reported solubility for CCNC(=O)N(c1ccc(F)cc1)c1ccnc(NC2CCOCC2)n1 ? Thanks! 25

---

Consider the following compounds; for each one, report its half-life.
- method summary: Half life in Sprague-Dawley rat
- Assay type: ADME, organism-based
- experimental parameters: in vivo
Lab book: enter the figure in h, no units written.

Could you please provide reported half-life for CCNC(=O)N(c1ccc(F)cc1)c1ccnc(NC2CCOCC2)n1 ? Thanks! 0.46

Could you please provide reported half-life for COc1ccc(N(C(=O)NCc2ccccc2Cl)c2ccnc(N[C@@H](C)C(C)(C)O)n2)cc1 ? Thanks! 1.9

Ref: ChEMBL document CHEMBL1138890
